protocol notes: Dynamic ozone deterioration test, Example 1 natural rubber compound (pale crape No. 1)
conditions used: Table 3, dynamic, repeated elongation 0 up to 20 % once a second, 2 parts added, ozone 35 ± 5 pphm, 50 ± 10°C
Overview of reported Crack-generating time across a group of compounds:

- compound: "CCCCCCCCCCCCCCCCCCSCCC#N"
  result units: "h"
  Crack-generating time: 15
- compound: "CC(C#N)CSCC(C)C#N (stereo not drawn)"
  result units: "h"
  Crack-generating time: 20
- compound: "CC(C)SCCC#N"
  result units: "h"
  Crack-generating time: 16
- compound: "N#CCCCSCCCC#N"
  result units: "h"
  Crack-generating time: 22
- compound: "CCC(CCCC#N)CSCC(CC)CCCC#N (stereo not drawn)"
  result units: "h"
  Crack-generating time: 16
- compound: "N#CCCSCCC#N"
  result units: "h"
  Crack-generating time: 24
